system: human Cav3.1 Cav3.2 or Cav3.3 channel; assay: In vitro assay T channel (FLIPR calcium fluorescence); type: cell-based; details: HEK293 cells expressing human Cav3.1, Cav3.2 or Cav3.3; 10 mM Ca2+-induced fluo-4 fluorescence; determined up to 10 μM; read-out: T channel antagonistic activity IC50
pIC50 overview
For clarity, pIC50 is expressed as the negative log10 of concentration in mol/L.

Consider the following illustrative entries.
compound="COc1ccc(C)c2nc(CCCN(C)CC[C@]3(O)C[C@H]4CC[C@@H]3C=C4c3ccccc3)[nH]c12 (relative stereo) [Example 30]" number=5.75
compound="COc1cc(C)c2[nH]c(CCCN(C)CC[C@]3(OC(=O)C(C)C)C[C@H]4CC[C@@H]3C=C4c3ccccc3)nc2c1OC (relative stereo) [Example 64A]" number=6.04
compound="Cc1ccccc1C1=C[C@H]2CC[C@@H]1C[C@]2(CCN(C)CCCc1nc2ccccc2[nH]1)OC(=O)C(C)C (relative stereo) [Example 4A]" number=5.37
compound="CC(C)C(=O)O[C@@]1(CCN(C)CCCc2ccccc2)C[C@H]2CC[C@@H]1C=C2c1ccccc1 (relative stereo) [Example 15A]" number=5.06
compound="COc1cccc2[nH]c(CCCN(C)CC[C@]3(O)C[C@H]4CCC[C@@H]3C=C4c3ccccc3)nc12 (relative stereo) [Example 36]" number=5.87

Please look at the following compound next.
Record CO[C@@]1(c2ccccc2)C[C@H]2CC[C@@H]1C[C@@]2(CCN(C)CCCc1nc2ccccc2[nH]1)OC(=O)C(C)C (relative stereo) [Example 77A] . Reported pIC50: 5.58
